target: human ANO6 (variant 5) (Homo sapiens, UniProt Q4KMQ2); construct: expressed in transfected cells; host or cells: Fischer rat thyroid (FRT) cells; experiment: Lact C2 assay (measuring phosphatidylserine externalization scramblase function); type: cell-based; conditions: FRT, compound 100 nM; FRT cells expressing human ANO6 (variant 5); ionomycin 10 µM; Lact-C2-GFP fluorescence; average of three tests
Sequence (Q4KMQ2 1-931 isoform Q4KMQ2-2): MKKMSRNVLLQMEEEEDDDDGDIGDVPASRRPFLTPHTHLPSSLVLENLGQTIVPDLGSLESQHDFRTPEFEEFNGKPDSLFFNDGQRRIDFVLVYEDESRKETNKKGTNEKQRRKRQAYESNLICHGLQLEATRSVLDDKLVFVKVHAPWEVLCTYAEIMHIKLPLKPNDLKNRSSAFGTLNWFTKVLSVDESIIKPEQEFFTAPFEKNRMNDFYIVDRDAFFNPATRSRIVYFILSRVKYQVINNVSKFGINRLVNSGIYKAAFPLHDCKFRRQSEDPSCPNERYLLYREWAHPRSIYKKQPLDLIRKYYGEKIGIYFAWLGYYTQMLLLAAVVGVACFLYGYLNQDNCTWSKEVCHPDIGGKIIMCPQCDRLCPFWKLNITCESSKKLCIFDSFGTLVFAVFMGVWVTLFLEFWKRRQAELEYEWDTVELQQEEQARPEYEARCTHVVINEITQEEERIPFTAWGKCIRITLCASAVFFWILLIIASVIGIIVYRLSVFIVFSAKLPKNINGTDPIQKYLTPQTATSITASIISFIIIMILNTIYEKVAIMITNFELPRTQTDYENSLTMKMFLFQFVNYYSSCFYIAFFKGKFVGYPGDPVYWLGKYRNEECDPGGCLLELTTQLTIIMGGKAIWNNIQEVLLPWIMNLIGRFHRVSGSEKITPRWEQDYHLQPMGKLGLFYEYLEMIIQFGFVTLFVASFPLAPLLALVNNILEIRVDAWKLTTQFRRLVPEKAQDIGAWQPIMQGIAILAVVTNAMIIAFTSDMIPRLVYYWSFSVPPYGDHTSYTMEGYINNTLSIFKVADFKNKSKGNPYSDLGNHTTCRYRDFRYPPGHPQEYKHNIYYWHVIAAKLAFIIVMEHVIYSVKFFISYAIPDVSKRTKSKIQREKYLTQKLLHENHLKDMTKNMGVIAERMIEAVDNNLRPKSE
# inhibition at 0.1 µM annotations
QUANTITY NAME: inhibition at 0.1 µM

> print(dat)
                       smiles.representation  obs.value
 1  FC(F)(F)c1ccc2nc(-c3cccc(Nc4ncc(-c5cccnn5)cn4)c3)[nH]c2c1      > 60%
 2  c1cnc(-c2ccc(Nc3cccc(-c4nc5ccccc5[nH]4)c3)cc2)nc1      > 60%
 3  c1cc(Nc2ccc(-c3cncnc3)cc2)cc(-c2nc3ccccc3[nH]2)c1  30 to 60%
 4  c1cnc(-c2ccc(Nc3cccc(-c4nc5ccccc5[nH]4)c3)nc2)nc1  30 to 60%
 5  Clc1ccc2nc(-c3cccc(Nc4ccc(-c5ccccc5)nn4)c3)[nH]c2c1      > 60%
 6  FC(F)(F)c1cc2nc(-c3cccc(Nc4ccc(-c5ccccc5)nn4)c3)[nH]c2cc1Cl      > 60%
 7  Fc1ccc2nc(-c3cccc(Nc4ncc(-c5ccccn5)cn4)c3)[nH]c2c1      > 60%
 8  Fc1ccc2nc(-c3cccc(Nc4ccc(-c5ccncn5)cn4)c3)[nH]c2c1      > 60%
 9  FC(F)(F)c1ccc2nc(-c3cccc(Nc4ccc(-c5cnccn5)cc4)c3)[nH]c2c1      > 60%
10  c1cncc(-c2ccc(Nc3cccc(-c4nc5ccccc5[nH]4)c3)cc2)c1      > 60%
11  FC(F)(F)c1ccc2nc(-c3cccc(Nc4ccc(-c5ccncn5)cc4)c3)[nH]c2c1      > 60%
12  FC(F)(F)c1ccc2nc(-c3cccc(Nc4ccc(-c5ccccn5)cn4)c3)[nH]c2c1      > 60%
13  FC(F)(F)c1ccc2nc(-c3cccc(Nc4ncc(-c5ccccc5)cn4)c3)[nH]c2c1      > 60%
14  FC(F)(F)Oc1cc2nc(-c3cccc(Nc4ccc(-c5ccccc5)nn4)c3)[nH]c2cc1Cl      > 60%
15  c1ccc(-c2cnc(Nc3cccc(-c4nc5ccccc5[nH]4)c3)nc2)nc1      > 60%
16  Clc1cc2[nH]c(-c3cccc(Nc4ncc(-c5ccccn5)cn4)c3)nc2cn1  30 to 60%
17  FC(F)(F)c1cc2nc(-c3cccc(Nc4ccc(-c5ccccc5)nn4)c3)[nH]c2cc1Br      > 60%
18  c1cc(Nc2ccc(-c3cnccn3)cc2)cc(-c2nc3ccccc3[nH]2)c1  30 to 60%
19  Fc1ccc2nc(-c3cccc(Nc4ccc(-c5ccccn5)cn4)c3)[nH]c2c1      > 60%
20  Clc1cc2nc(-c3cccc(Nc4ccc(-c5ccccc5)cn4)c3)[nH]c2cc1Cl      > 60%
21  FC(F)(F)c1ccc2nc(-c3cccc(Nc4ccc(-c5ncccn5)cc4)c3)[nH]c2c1      > 60%
22  COC(=O)c1ccc2nc(-c3cccc(Nc4ccc(-c5cccnn5)cc4)c3)[nH]c2c1      > 60%
23  c1cc(Nc2ccc(-c3cccnn3)cn2)cc(-c2nc3ccccc3[nH]2)c1      > 60%
24  FC(F)(F)c1ccc2nc(-c3cccc(Nc4ccc(-c5ccccc5)cn4)c3)[nH]c2c1      > 60%
25  FC(F)(F)c1ccc2nc(-c3cccc(Nc4ncc(-c5ncccn5)cn4)c3)[nH]c2c1      > 60%
26  Fc1ccc2nc(-c3cccc(Nc4ncc(-c5cccnn5)cn4)c3)[nH]c2c1      > 60%
27  Fc1cc(Br)c2[nH]c(-c3cccc(Nc4ccc(-c5ccccc5)nn4)c3)nc2c1  30 to 60%
28  Fc1cccc(-c2ccc(Nc3cccc(-c4nc5ccc(C(F)(F)F)cc5[nH]4)c3)nc2)c1      > 60%
29  c1ccc(-c2ccc(Nc3cccc(-c4nc5ccccc5[nH]4)c3)nn2)cc1      > 60%
30  Fc1cc2nc(-c3cccc(Nc4ccc(-c5ccccc5)nn4)c3)[nH]c2cc1Br      > 60%
31  CC(C)(C)c1ccc2nc(-c3cccc(Nc4ccc(-c5ccccc5)nn4)c3)[nH]c2c1      > 60%
32  c1cc(Nc2ccc(-c3ccncn3)cc2)cc(-c2nc3ccccc3[nH]2)c1      > 60%
33  c1ccc(-c2ccc(Nc3cccc(-c4nc5ccccc5[nH]4)c3)cc2)cc1      > 60%
